Hello, the source for this data is patent US7541381B2, in case you need it.

target_under_test: AmpC β-lactamase (Escherichia coli)
Construct: made in house
Sequence (P00811 20-377): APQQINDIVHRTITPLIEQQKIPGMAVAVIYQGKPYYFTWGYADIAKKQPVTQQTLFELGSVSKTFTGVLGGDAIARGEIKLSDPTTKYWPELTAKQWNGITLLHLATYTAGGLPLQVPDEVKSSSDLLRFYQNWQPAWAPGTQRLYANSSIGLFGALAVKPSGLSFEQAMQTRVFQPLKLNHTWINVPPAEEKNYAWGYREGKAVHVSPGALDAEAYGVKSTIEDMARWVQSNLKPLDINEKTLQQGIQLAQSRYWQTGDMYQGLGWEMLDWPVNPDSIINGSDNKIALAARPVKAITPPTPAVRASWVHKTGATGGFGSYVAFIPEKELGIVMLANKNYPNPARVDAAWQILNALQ
assay_summary: biochemical
Type: biochemical
experimental_context: 50 mM TRIS pH 7.0, nitrocefin substrate, progress curve analysis
Task for the reader: assign each of the following compounds its reported Ki.
Supply the numeric figure in µM, leaving out any unit text.

Query Cc1ccc(S(=O)(=O)Nc2csc(C)c2C(=O)O)cc1 yields Ki of 60

# compound Cc1oc(C)c(S(=O)(=O)Nc2cccs2)c1C(=O)O ; its Ki = 64

Ki reading for O=S(=O)(O)CCCSc1nc2ccccc2s1 : 318

Form field Ki, entry O=C(O)c1sccc1S(=O)(=O)Nc1ccccc1N1CCCCC1 : 14

For O=C(O)c1sccc1S(=O)(=O)Nc1ccc(Cl)cc1 the compound record lists Ki as 23

Record summary for O=C(O)CCSc1nc2ccccc2s1 : reported Ki = 646

---

target_under_test: elastase (Sus scrofa)
Construct: purchased Sigma (St. Louis, Mo.); host or cells: porcine pancreas
Sequence (P00772 27-266): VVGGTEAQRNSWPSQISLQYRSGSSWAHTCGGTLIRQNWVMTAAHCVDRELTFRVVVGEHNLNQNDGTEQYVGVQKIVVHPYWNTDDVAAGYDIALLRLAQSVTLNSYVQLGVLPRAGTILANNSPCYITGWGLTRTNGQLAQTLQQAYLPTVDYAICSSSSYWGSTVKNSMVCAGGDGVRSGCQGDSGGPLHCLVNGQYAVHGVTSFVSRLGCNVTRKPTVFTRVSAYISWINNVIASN
assay_summary: elastase selectivity counter-screen
Type: biochemical, porcine
experimental_context: 640 μM elastase substrate, 50 mM TRIS pH 7.0, 25° C.
Description: The substrates for α-chymotrypsin (succinyl-ala-ala-pro-phe-p-nitroanilide) and β-trypsin (N-benzoyl-L-arginine ethyl ester, BAEE) were also purchased from Sigma. […] For α-chymotrypsin, 200 μM of substrate was used; the reactions were initiated by addition of 10 μL of a 0.1 mg/ml enzyme stock solution and monitored at 410 nm. For β-trypsin, 200 μM of BAEE was used, the reactions were initiated by the addition of 5 μL of a 0.2 mg/ml enzyme stock solution, and monitored at 260 nm. […]
metric: IC50

Lookup result for O=C(O)c1sccc1S(=O)(=O)Nc1ccc(Cl)cc1 ; measured IC50: > 4000 µM
